Values compiled from paper PMC5540273.

Test system: MAST1
Reported Conditions: concentration: 1 μM, replicates: in singlicate; n = 1;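 further: KINOMEscan kinase panel screen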
Measured Endpoint: %Inh (%)
I only need the number, in %, no unit after it.

As a guide, the following entries are already answered.
{"columns": ["Molecule", "Measurement Units", "%Inh"],
 "data": [
  ["O=c1cc(N2CCOCC2)nc2n(Cc3cccc(Cl)c3Cl)c(C3CC3)nn12", "%", 4],
  ["O=c1cc(N2CCOCC2)nc2n(Cc3cccc(C(F)(F)F)c3)ccn12", "%", 9]
]}

Asked: Answer with the recorded %Inh for the molecule listed here: "CCn1cnc2c(N)ncnc21"
Given back: 5

Asked: Answer with the recorded %Inh for the molecule listed here: Cc1nnc(-c2ccc3ncc(-c4ccc(S(C)=O)cc4)n3c2)o1 (centres unmarked)
Given back: 34

Asked: Answer with the recorded %Inh for the molecule listed here: "O=C(NCCCN1CCOCC1)c1cccc(Nc2nccc(Nc3ccc(Oc4ccccc4)cc3)n2)c1"
Given back: 0

---

System: EPHA5
Reported Conditions: concentration: 1 μM, replicates: in singlicate; n = 1
Measured Endpoint: %Inh (%)
I only need the number, in %, no unit after it.

As a guide, the following entries are already answered.
{"columns": ["Molecule", "Measured Endpoint", "Value Measured"],
 "data": [
  ["Cn1cc(-c2ccc3c(c2)CCN3C(=O)Cc2ccccc2Cl)c2c(N)ncnc21", "%Inh", 0],
  ["CN(C1=C(c2ccccc2)C(=O)NC1=O)c1ccccc1", "%Inh", 6]
]}

Asked: Write down measured %Inh (EPHA5) for this molecule. "Cc1cn2c(=O)cc(N3CCOCC3)nc2n1Cc1cccc(Cl)c1Cl"
Given back: 0

---

System: TRKC
Construct: gene NTRK3
Reported Conditions: concentration: 1 μM, replicates: in singlicate; n = 1
Listed here are molecules together with their documented %Inh.
I only need the number, in %, no unit after it.

{"columns": ["Molecule", "Value Measured"],
 "data": [
  ["Cn1ccc2ncnc(Oc3ccc(NC(=O)Nc4ccncc4)c(Cl)c3)c21", 0],
  ["COc1cc(Nc2nccc(N3CCC(NC(=O)c4cccc(NC(C)=O)c4)C3)n2)cc(OC)c1OC (centres unmarked) [GSK1379754]", 22],
  ["Cl.Nc1ncnc2occ(-c3ccc(NC(=O)Nc4cc(C(F)(F)F)ccc4F)cc3)c12 [SB-707548]", 100],
  ["Cc1c2ccc(N(C)c3ccnc(Nc4cccc(S(N)(=O)=O)c4)n3)cc2nn1Cc1ccccc1.Cl.Cl [GW787226]", 0],
  ["CSc1ccc(-c2cc3ncnc(SCC(=O)O)c3s2)cc1", 0]
]}

Asked: Answer with the recorded %Inh for the molecule listed here: CNc1ncnc2[nH]ncc12 [SKF-18355]
Given back: 0

Asked: Answer with the recorded %Inh for the molecule listed here: Nc1nccc(-c2c(-c3ccc(F)cc3)ncn2C2CCN(CC(F)(F)F)CC2)n1 [SB-236560]
Given back: 18

Asked: Answer with the recorded %Inh for the molecule listed here: CCCCCc1nc2c(N)ncnc2n1CCCCC [SKF-97255]
Given back: 0

---

Test system: ASK1
Construct: gene MAP3K5
Reported Conditions: concentration: 1 μM, replicates: in singlicate; n = 1
Measured Endpoint: %Inh (%)
I only need the number, in %, no unit after it.

As a guide, the following entries are already answered.
{"columns": ["Compound", "Tested On", "Measurement Units", "%Inh"],
 "data": [
  ["Cc1nnc(-c2ccc3ncc(-c4ccc(S(C)=O)cc4)n3c2)o1 (stereo not drawn)", "ASK1", "%", 0],
  ["NS(=O)(=O)c1cccc(-c2ccc3ncc(N4CCOCC4)nc3c2)c1", "ASK1", "%", 0],
  ["Cn1cc(-c2ccc3c(c2)CCN3C(=O)Cc2ccccc2Cl)c2c(N)ncnc21", "ASK1", "%", 0]
]}

Now for the compound whose %Inh we want.
Asked: Write down measured %Inh (ASK1) for this compound. "Cc1cccc(-c2nc(-c3ccc(S(C)(=O)=O)cc3)sc2-c2ccncc2)c1"
Given back: 0
